- targetEntity: Intestinal-type alkaline phosphatase (Homo sapiens)
- assayInfo: Inhibition of human IAP using CDP-star as substrate pretreated for 10 mins followed by substrate addition measured after 10 mins by […] method
- settings: read-out: IC50
The entries below are paired with their reported pIC50.
By convention, pIC50 is the negative base-10 log of a molar concentration.

Known results for compounds:
structureSmilesString	pIC50
Cc1c(C#N)c(=O)oc2cc(OS(=O)(=O)c3cc(Cl)ccc3Cl)ccc12	5.65
Cc1c(Cl)c(=O)oc2cc(OS(=O)(=O)c3ccccc3)ccc12	5.26
CCCCCCCCS(=O)(=O)Oc1ccc2c(C)c(C#N)c(=O)oc2c1	5.55
CCS(=O)(=O)Oc1ccc2c(C)c(C#N)c(=O)oc2c1	5.39
CCCCCCCCS(=O)(=O)Oc1ccc2c(C)cc(=O)oc2c1OS(=O)(=O)CCCCCCCC	4.99

Next item in the queue.
## Task Which measured pIC50 value corresponds to c1ccc([C@H]2CN3CCSC3=N2)cc1 ?
## Result 4.69

###

- targetEntity: Intestinal-type alkaline phosphatase (Homo sapiens, UniProt P09923)
- Sequence (P09923 whole entry): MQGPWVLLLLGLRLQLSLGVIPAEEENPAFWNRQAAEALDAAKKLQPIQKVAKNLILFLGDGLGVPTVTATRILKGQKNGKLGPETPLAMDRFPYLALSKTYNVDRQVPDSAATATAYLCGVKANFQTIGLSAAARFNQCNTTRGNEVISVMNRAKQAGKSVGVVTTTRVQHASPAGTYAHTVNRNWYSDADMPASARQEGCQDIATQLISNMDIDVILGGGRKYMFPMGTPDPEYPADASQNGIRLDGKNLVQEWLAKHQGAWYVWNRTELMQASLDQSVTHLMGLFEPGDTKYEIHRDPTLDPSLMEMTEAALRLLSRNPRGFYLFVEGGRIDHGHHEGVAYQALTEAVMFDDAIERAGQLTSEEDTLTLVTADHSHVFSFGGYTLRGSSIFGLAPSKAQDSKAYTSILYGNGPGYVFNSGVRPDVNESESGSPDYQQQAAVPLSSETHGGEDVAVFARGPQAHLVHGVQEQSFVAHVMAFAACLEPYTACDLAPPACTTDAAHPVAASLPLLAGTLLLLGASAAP
- assayInfo: Inhibition of human IAP using CDP-star as substrate pretreated for 10 mins followed by substrate addition measured after 10 mins by […] method
- settings: read-out: IC50
The entries below come with measured IC50 values attached.
Respond with the bare value in µM.

Look over these answered cases.
structureSmilesString	unitAnnotation	IC50
Cc1c(C#N)c(=O)oc2cc(OS(=O)(=O)c3cccc([N+](=O)[O-])c3)ccc12	µM	5.16
Cc1cc(=O)oc2cc(OS(=O)(=O)c3ccc(Cl)c([N+](=O)[O-])c3)ccc12	µM	2.72

Shifting focus to the molecule that follows.
## Task Requested read-out: IC50. Entry: CCCCS(=O)(=O)Oc1ccc2c(C)c(Cl)c(=O)oc2c1
## Result 3.22
